target_entity: CDK1/Cyclin B1 (Homo sapiens)
Sequence (P06493 whole entry): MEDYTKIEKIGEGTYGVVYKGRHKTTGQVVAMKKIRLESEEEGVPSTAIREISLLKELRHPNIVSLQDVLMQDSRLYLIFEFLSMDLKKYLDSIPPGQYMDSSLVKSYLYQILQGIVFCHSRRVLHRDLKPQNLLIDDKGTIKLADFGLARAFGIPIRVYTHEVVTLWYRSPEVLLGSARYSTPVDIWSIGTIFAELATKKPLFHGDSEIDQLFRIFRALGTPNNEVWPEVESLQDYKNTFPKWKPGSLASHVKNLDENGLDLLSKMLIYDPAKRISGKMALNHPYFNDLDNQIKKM
Sequence (P14635 whole entry partner): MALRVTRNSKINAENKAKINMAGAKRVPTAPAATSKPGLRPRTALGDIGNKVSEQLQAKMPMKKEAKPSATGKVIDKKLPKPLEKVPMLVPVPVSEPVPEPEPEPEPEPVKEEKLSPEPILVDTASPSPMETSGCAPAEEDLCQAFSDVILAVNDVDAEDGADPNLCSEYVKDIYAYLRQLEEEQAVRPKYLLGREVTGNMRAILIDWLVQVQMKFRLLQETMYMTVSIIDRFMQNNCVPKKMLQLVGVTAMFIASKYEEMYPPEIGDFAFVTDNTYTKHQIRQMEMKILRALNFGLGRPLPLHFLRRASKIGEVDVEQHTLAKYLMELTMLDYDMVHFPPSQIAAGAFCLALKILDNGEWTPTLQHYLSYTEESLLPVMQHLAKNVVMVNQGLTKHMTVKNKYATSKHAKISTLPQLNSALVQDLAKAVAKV
experimental_details: CDK1/Cyclin B1 Biochemical Assay (TR-FRET), 0.015 mM ATP
assay_conditions: 0.15 μM Rb (Ser780)-biotin substrate, pH7.0, 60 min preincubation, 120 min reaction, room temperature
Listed compounds paired with reported IC50

compound | IC50 / nM
COCC(C)NC(=O)O[C@H]1CC[C@@H](c2cc(Nc3ccc4c(c3F)CS(=O)(=O)N4C3CC3)n[nH]2)C1 (relative stereo) | 117
CCCNC(=O)O[C@H]1CC[C@@H](c2cc(Nc3ccc4c(c3F)C(C)(C)NS4(=O)=O)n[nH]2)C1 (relative stereo) | 694
CN1c2ccc(Nc3cc([C@@H]4CC[C@H](OC(=O)NC5(C)CC5)C4)[nH]n3)c(F)c2CS1(=O)=O (relative stereo) | 33

====

target_entity: CDK2/Cyclin E1 (Homo sapiens, UniProt P24941)
experimental_details: CDK2/Cyclin E1 Biochemical Assay (TR-FRET), 0.060 mM ATP
assay_conditions: 0.15 μM Rb (Ser780)-biotin substrate, pH7.0, 60 min preincubation, 120 min reaction, room temperature
pIC50: −log10 of the molar value.
Listed compounds paired with reported pIC50
readout: pIC50

compound | quantitative_result
CC(C)NC(=O)O[C@H]1CC[C@@H](c2cc(Nc3ccc4c(c3O)CNS4(=O)=O)n[nH]2)C1 (relative stereo) | 8.00
CCNC(=O)O[C@H]1CC[C@@H](c2cc(Nc3ccc4c(c3F)CNS4(=O)=O)n[nH]2)C1 (relative stereo) | 8.10
O=C(NC1(CO)CCC1)O[C@H]1CC[C@@H](c2cc(Nc3ccc4c(c3)CS(=O)(=O)N4)n[nH]2)C1 (relative stereo) | 8.52
Cc1cc2c(cc1Nc1cc([C@@H]3CC[C@H](OC(=O)NC(C)C)C3)[nH]n1)CS(=O)(=O)N2C (relative stereo) | 5.98
[2H]C([2H])([2H])N1c2c(F)cc(Nc3cc([C@@H]4CC[C@H](OC(=O)N[C@@H](C)CC)C4)[nH]n3)cc2CS1(=O)=O (relative stereo) | 7.92
CCCNC(=O)O[C@H]1CC[C@@H](c2cc(Nc3ccc4c(c3)NS(=O)(=O)C4)n[nH]2)C1 (relative stereo) | 8.19
CN1c2ccc(Nc3cc([C@@H]4CC[C@H](OC(=O)NC(C)(C)CO)C4)[nH]n3)c(F)c2CS1(=O)=O (single isomer, unassigned) [Example 327a] | 8.82
CC1(NC(=O)O[C@H]2CC[C@@H](c3cc(Nc4ccc5c(c4F)CS(=O)(=O)N5)n[nH]3)C2)COC1 (relative stereo) | 8.24
CN1c2ccc(Nc3cc([C@@H]4CC[C@H](OC(=O)NC5(C)COC5)C4)[nH]n3)cc2CS1(=O)=O (relative stereo) | 8.38
CC(C)NC(=O)O[C@H]1CC[C@@H](c2cc(Nc3cc(Cl)c4c(c3)S(=O)(=O)NC4)n[nH]2)C1 (relative stereo) | 8.82
CC(C)NC(=O)O[C@H]1CC[C@@H](c2cc(Nc3ccc4c(c3F)C(C)NS4(=O)=O)n[nH]2)C1 (single isomer, unassigned) [Example 51c] | 8.68

====

Listed compounds paired with reported pIC50
target_entity: CDK2/Cyclin E1 (Homo sapiens, UniProt P24941)
experimental_details: CDK2/Cyclin E1 Biochemical Assay (TR-FRET), 0.060 mM ATP
assay_conditions: 0.15 μM Rb (Ser780)-biotin substrate, pH7.0, 60 min preincubation, 120 min reaction, room temperature
pIC50: −log10 of the molar value.

compound | target_entity | pIC50
CC(C)NC(=O)O[C@H]1CC[C@@H](c2cc(Nc3ccc4c(c3)NS(=O)(=O)C4)n[nH]2)C1 (stereo in doubt) [Example 303b] | CDK2/Cyclin E1 (Homo sapiens, UniProt P24941) | 8.70
CC(C)(C)NC(=O)O[C@@H]1CC[C@H](c2cc(Nc3cc4c(cc3F)NS(=O)(=O)C4)n[nH]2)C1 [Example 404a] | CDK2/Cyclin E1 (Homo sapiens, UniProt P24941) | 7.74
CC(C)NC(=O)O[C@H]1CC[C@@H](c2cc(Nc3cc4c(cc3F)S(=O)(=O)NC4)n[nH]2)C1 (single isomer, unassigned) [Example 12b] | CDK2/Cyclin E1 (Homo sapiens, UniProt P24941) | 8.03
CC1(NC(=O)O[C@H]2CC[C@@H](c3cc(Nc4ccc5c(c4F)CN(C4CC4)S5(=O)=O)n[nH]3)C2)COC1 (relative stereo) | CDK2/Cyclin E1 (Homo sapiens, UniProt P24941) | 8.17
COCC1(NC(=O)O[C@H]2CC[C@@H](c3cc(Nc4ccc5c(c4F)CN(C)S5(=O)=O)n[nH]3)C2)CC1 (relative stereo) | CDK2/Cyclin E1 (Homo sapiens, UniProt P24941) | 8.19
[2H]C([2H])([2H])N1c2c(F)cc(Nc3cc([C@@H]4CC[C@H](OC(=O)NC5(C)CC5)C4)[nH]n3)cc2CS1(=O)=O (single isomer, unassigned) [Example 291a] | CDK2/Cyclin E1 (Homo sapiens, UniProt P24941) | 8.70

Attribution: patent US20260297080A1
